Cited source for all entries: patent US8895761B2

system: Lolium perenne (LOLPE); assay: Post-emergence herbicidal glasshouse test, Lolium perenne; format: in vivo; conditions: 312 h, rate 250 g/ha, evaluated after 13 days, scale 100 = total damage to plant, 0 = no damage
Answer each item with its documented pest or weed control at 250 g/ha.
The reply should contain only the number, in %.

Query block: What does the data say about its pest or weed control at 250 g/ha? Entry: CCc1cc(-c2ccc(F)c(F)c2F)ccc1C1=C(O)C(C)(CC)OC(C)(CC)C1=O (centres unmarked)
Result block: 50

Query block: What does the data say about its pest or weed control at 250 g/ha? Entry: CCc1cc(-c2ccc(F)cc2)ccc1C1=C(O)C(C)(CC)OC(C)(C)C1=O (centres unmarked)
Result block: 90

Query block: What does the data say about its pest or weed control at 250 g/ha? Entry: CCc1cc(-c2cccc(Cl)c2)ccc1C1=C(O)C(C)(C)OC(C)(C)C1=O
Result block: 80

Query block: What does the data say about its pest or weed control at 250 g/ha? Entry: CCc1cc(-c2ccc(F)c(OC)c2)ccc1C1=C(O)C(C)(CC)OC(C)(CC)C1=O (centres unmarked)
Result block: 60

Query block: What does the data say about its pest or weed control at 250 g/ha? Entry: CCc1cc(-c2ccc(F)c(F)c2)ccc1C1=C(O)C(C)(CC)OC(C)(CC)C1=O (centres unmarked)
Result block: 80

Query block: What does the data say about its pest or weed control at 250 g/ha? Entry: CCc1cc(-c2ccc(F)c(F)c2F)ccc1C1=C(O)C(C)(CC)OC(C)(C)C1=O (centres unmarked)
Result block: 80

Query block: What does the data say about its pest or weed control at 250 g/ha? Entry: CCc1cc(-c2ccc(F)c(OC)c2)ccc1C1=C(O)C(C)(C)C(=O)C(C)(C)C1=O
Result block: 60

Query block: What does the data say about its pest or weed control at 250 g/ha? Entry: CCc1cc(-c2ccc(F)cc2)ccc1C1=C(O)C2(CCCC2)OC(C)(C)C1=O
Result block: 60
